These data points were gathered from patent US20260258048A1.

- TARGET_DESC: IL-17A(FLAG-tagged): IL-17RA(His-tagged) (Homo sapiens, UniProt Q16552, K93Q)
- Sequence (Q16552 with tags, fused parts or gaps K93Q): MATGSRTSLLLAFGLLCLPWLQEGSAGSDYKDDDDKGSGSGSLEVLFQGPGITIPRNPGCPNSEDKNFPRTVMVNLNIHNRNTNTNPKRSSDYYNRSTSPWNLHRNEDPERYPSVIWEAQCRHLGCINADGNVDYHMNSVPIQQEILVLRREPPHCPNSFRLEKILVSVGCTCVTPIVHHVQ
- ASSAY_SUMMARY: IL-17A(FLAG-tagged): IL-17RA(His-tagged) binding disruption Eu-HTRF assay
- PARTICULARS: class of the average IC50 where tested more than once
- Description: IL-17A(FLAG-tagged): IL-17RA(His-tagged) binding disruption Eu-HTRF assay An antibody directed against the FLAG tag of IL-17A (SEQ ID NO: 1) is labeled with the HTRF donor chromophore (Europium-cryptate). […] The fluorescence-resonance energy transfer (FRET) depends on the vicinity of the donor chromophore to the acceptor, and interruption of the binding between the IL-17A and IL-17RA causes the reduction/loss of FRET. […]
MEASUREMENT_NAME: IC50

# COMPOUND, IC50
rows = [
    ("CC1(C)CC(Cc2cnn3cc([C@@H](NC(=O)c4nonc4C4CC4)C4CCC(F)(F)CC4)nc3c2)C(=O)N1 (single isomer, unassigned)", "< 400 nM"),
]

Look at this compound and give its reported IC50. C[C@H]1C[C@H](Cc2cnn3cc([C@@H](NC(=O)c4nonc4C4CC4)C4CCC(F)(F)CC4)nc3c2)C(=O)N1 (relative stereo)
< 400 nM

Given O=C(N[C@H](c1cn2ncc(CC3CCCNC3=O)cc2n1)C1CCC(F)(F)CC1)c1nonc1C1CC1 (single isomer, unassigned) [Example 24] , state its recorded IC50.
400 to 4000 nM
